Please respond with reported stoichiometry N for every item in the list.
SUBJECT_OF_TEST: the molecule itself
ASSAY: AUC; sedimentation equilibrium, starting concentrations 5, 10 and 20 µM, unlabelled peptide, no DMSO; 20 °C, sodium phosphate pH 6.8 with NaCl; fitted to a single ideal species (N) and, for the WT, to a dimer-tetramer model (apparent KD: tetramer to dimers)
No end group written: not given here.
Just the number.

stoichiometry N for LSPDAYRFLTEQDRQLRLLQAQIQRLLEAQSL-NH2 (STIL (SCL/TAL1 Interrupting Locus) coiled-coil domain, residues 718-749; 32-residue peptide, unlabelled; also called WT STIL CCD peptide; WT CCD; source: synthetic peptide (Fmoc-SPPS on rink amide, RP-HPLC purified)) [STIL CCD_(718–749) WT] is 2.9

The protein LSPDLYRFLTELDRQLRLLQAQIQRLLEAQSL-NH2 (STIL coiled-coil domain, residues 718-749, with A722L and Q729L; also called double mutant; source: synthetic peptide (Fmoc-SPPS on rink amide, RP-HPLC purified)) [STIL CCD_(718–749) A722L Q729L] showed stoichiometry N equal to 3.24

Entry LSPDAYRFLTELDRQLRLLQAQIQRLLEAQSL-NH2 (STIL coiled-coil domain, residues 718-749, with Q729L; also called STIL CCD Q729L; source: synthetic peptide (Fmoc-SPPS on rink amide, RP-HPLC purified)) [STIL CCD_(718–749) Q729L] — recorded stoichiometry N = 3.47

Note to self: stoichiometry N recorded for LSPDLYRFLTEQDRQLRLLQAQIQRLLEAQSL-NH2 (STIL coiled-coil domain, residues 718-749, with A722L; source: synthetic peptide (Fmoc-SPPS on rink amide, RP-HPLC purified)) [STIL CCD_(718–749) A722L] was 3.51
